- TESTED ON: Glutamate receptor ionotropic, AMPA (Rattus norvegicus, UniProt P19490+P19491+P19492+P19493)
EXPERIMENTAL ENDPOINT: IC50 (µM)

Illustrative cases are given below, each with its answer.
CNC(=O)N1N=C(c2ccc(N)cc2)c2cc3c(cc2CC1C)OCO3 (configuration not stated) [GYKI-53655] :: 1
CC1=NN=C(c2ccc(N)cc2)c2cc3c(cc2C1)OCO3 [GYKI-52466] :: 10
CCNC(=O)N1N=C(c2ccc(N)cc2)c2cc3c(cc2C1C)OCO3 (configuration not stated) :: 7.2

A = CC1c2cc3c(cc2C(c2ccc(N)cc2)=NN1C(=O)NC(C)(C)C)OCO3 (configuration not stated)
B = CCCCNC(=O)N1N=C(c2ccc(N)cc2)c2cc3c(cc2C1C)OCO3 (configuration not stated)
C = CCCNC(=O)N1N=C(c2ccc(N)cc2)c2cc3c(cc2C1C)OCO3 (configuration not stated)
D = CNC(=O)N1N=C(c2ccc(N)cc2)c2cc3c(cc2C1C)OCO3 (configuration not stated)
Enquiry: Order the entries by their reported IC50, beginning at the minimum. Field: ranking. Enter the labels in the order requested.
Return: B, C, A, D
(B: 1.8 µM, C: 2.8 µM, A: 5.4 µM, D: 23 µM)

All figures here come from ChEMBL document CHEMBL1129652.
